- Test system: MDA-MB-231 cells
- Procedure details: MTT cell viability assay
- Type: cell-based
- Conditions: Homo sapiens
Parameter measured: IC50 (µM)

>  <Test smiles>
O=C(NC1CCCCC1)c1[nH]cnc1-c1nc2ccccc2[nH]1

>  <System tested>
MDA-MB-231 cells

>  <Observed result>
8.3

$$$$
